All figures here come from the nanobody polyreactivity screen of Harvey et al. (2022).

experiment: yeast display, Sf9 membrane polyspecificity reagent, FACS + sequencing; frameworks hold sequencing errors
outcome_measure: polyreactivity (PSR sort gate)

QVQLVESGGGLVQAGGSLRLSCAASGITFANYAMGWYRQAPGKERELVAAISWSDTSTYADSVKGRFTISRDNAKNTVYLQMNSLKPEDTAVYYCAADYHTPSSFAPIELYDYWGQGTQVTVSS: low polyreactivity
QVQLVESGRGLVQAGGSLRLSCAASGRTFPVYAMGWYRQAPGKERELVAAITYSGGSTSYADSVKGRFTISRDNAKNTVYLQMNSLKPEDTAVYYCAADRAYYSRGIGSVGYYYWGQGTQVTVSS: low polyreactivity
QVQLVQSGGGLVQAGGSLRLSCAPTGVIFRHNARGWYRQSPGKERELVAAISRSGGNTYYADSVKGRFTISRDNAKQTDYLQRNSLKPEDTAVYYSNKIEYDSWADHVYWGQGTQVTVSS: low polyreactivity
QVQLVESGGGLVQAGGSLRLSCAASGRTFYINAMGWYRPEPGKERELVAAISSSGGITYYADSVKGRFTISRDNAKNTVNLQMIRLKPEDTAVYYCNAPNDYSWHYDYWGQGTQVTVSS: low polyreactivity
QVQLVESGGGLVQAGGSLRLSCAASGINFIVNPMGWYRQAPGKEREFVATISANSDGTYYADSVKGRFTISRDNAKNTVYLQMNSLKPEDTAVYYWGQGTQVTVSS: low polyreactivity
QVQLVESGGGLVQAGGSLRLSCAASGRIFVNNAMGWSRQAPGKERELVAAISKRGGSTYYADSVKGRFTISRDNAKNSVYLQMNSLKPEDTAVYYCAATPVYSGPYDYWGQGTQVTVSS: high polyreactivity
QVQLVESGGGLVQAGGSLRLSCAASGFIFRYYAMGWYTQAPGKERELVAAISYSGGSTYYADSVKGRFTITRDNAKNTVYLQMNSLKPEDTAVYYCAAVTVKSNQYLYYVYPYGMGYWGQGTQVTVSS: high polyreactivity
QVQLVESGGGLVQAGGSLRLSCAASVYAMGWYRQAPGKERELVAAITDSGSTNYADSVKGRFTISRDNAKNTVYLQMNTLKPEDTAVYYCNADPYYATGSWARLPLYQYDYWGQGTQVTVSS: low polyreactivity
QVQLVESGGGLVQAGGSLRLSCAASGRIFPYYAMGWYRQAPGKERELVATISSGGRTNYADTVMGRFTISRDNAKNTVYLQMNSLKPEDTAVYYCAADYRKSRVFYGLYYWGQGPQVTVSS: high polyreactivity
QVQLVESGGGLVQAGGSLRLSCAASGRIFAFYTMGWYIQAPGKERELVAAITRRSGSTYYADSVKGRFTISRDNAKNTVYLQMNSLKPEDTAVYYCAVDTYIYTNRRYTKFDYWGQGTQVTVSS: low polyreactivity

Query: polyreactivity (PSR sort gate); subject: `QVQLVESGGGLVQAGGSLRLSCAASGFTFVYYVMGWYRQAPGKERELVAAINAGGGSTYYADSVKGRFTISRDNAKNTVYLQMNSLKPEDTAVYYCNARVRVRLGRNWSSYYYWGQGTQVTVSS`
high polyreactivity

* * *

test: yeast display, Sf9 membrane polyspecificity reagent, FACS + sequencing; frameworks hold sequencing errors
outcome_measure: polyreactivity (PSR sort gate)

Examples from the recorded data:
EEELVESGGGLVQAGGSLRLSCAASGRTFARNAMGWYRQAPGKERELVAGINFSGGNTYYADSVKGRFTISRDNAKNTVYLQMNSLKPEDTEVYYCAPRRYWEGDYWGQGTQVTVSS: low polyreactivity
QVQLVESGGGLVQAGGSLRLSCAASGRTFNRNTMGWYRQAPGKERELVAGITKRGGSTYYADSVKGRFTISRDNAKNTVYLQMNSLKPEDTAVYYCNAATNGSPPDYDYWGQGTQVNVSS: high polyreactivity
QGQLGESGGGLVQAGGSLRLSCAATGFTSYVYAMGWYRQAPGKERELVAAISLRTASTYYADSVKGRFTISRDNAKNTVYLQMTSLKPEDTAVYDCALGRETYRYAYRLNYWGQGTQVTLSS: high polyreactivity
QVQLVESGGGLVQAGGSLRLSCAASGSIFYYYAMGWYRQAPGKERELVARITFSGGDTYYADSVKGRFTISRDNAKNTVYLQMNSLKPEDSAVYYCAAYCSYFFAWLDSYRDDYDYWGQGTQVTVSS: low polyreactivity
HVQLVEAGGGLVQAGGSLRLSCAASGSTLQYYAMGWYRQAPGKERELVAAITSTGSRTYYADSVKGRFTISRDNAKNTVYLLMNSLKPADTAVYYCAADIYDGEYDYWGQGTQVTVSS: high polyreactivity
QVQLVESGGGLVQAGGSLRLSCAAYGRTFHAYAKGWYRQAPGKGRELVAAITRTGTTHYADSVKGRFTISRDNAKNTVYLQMNSLKPEDTAVYYCAAQHVRVDAQFVLQGYDYWGQGTQVTVSS: low polyreactivity

Lab note: each sequence below needs its polyreactivity (PSR sort gate) filled in.
1. QVQLVESGGGLVQAGGSLRLSCAAYGNTFSQYAKGWYRQAPGKERELVATISKSSGSTSYTDSVKGRFTISRDNAKNTVYLQLNSLKPEDSAVYYCNADSSDVYHHLGVLFFSTWYDYWGQGTLVTVSS
2. QVQLVESGGGLVQAGGSLRLSCAASGSIFGRNAMGWYRQEPGKERELVARISYIGGSTYYADSVKGRFTISRDNAKNTVYLQMNSLKPEDTAVYYCAKRYGFRYKRMDYWGQGTQVTVSS
3. QVQLVESGGGLVQAGGSLRLSCAASGLTLAPNAMGWYRQAPGKERELVAAITRSGGDTYYADSVKGRFTISRDNAKNTVYLQMNSLKPEDTAVYYCAADYWFRYGTYEYWGQGTQVTVSS
4. QVQLVESGGGLVQAGGSLRLSCAASGFIFPYYAMGWYRQAPGKERELVAAILTGGSTYYADSVKGRFTISRDNAKNTVYLQMNSLKAEDSAVYYCAARRKYDPNYYWGQGTQVTVSS
5. QVQLVESGGGLVQAGGSLRLSCAASGLTFGSKAMGWYRQAPGKERELLAAISWNGGSTSYADSVKGRFTISRDNAKHTVYLQMNSLKPEDTAVNYCAADYFDSSYQPTDSILYEYWGQGTQVTVSS

["low polyreactivity", "low polyreactivity", "high polyreactivity", "high polyreactivity", "low polyreactivity"]
